Readings of EC50 at 72 h for the listed compounds
- protocol.notes: Assay 6 Trypanosoma cruzi intracellular assay, cytotoxicity against H9c2 cells
- Type: cell-based
- experimental.context: rat, H9C2 cardiomyocytes infected with T. cruzi trypomastigotes, total number of H9C2 cells, minimum threshold 4.3, read-out: cytotoxicity against H9c2 cells, pEC50 (converted)
readout: EC50 at 72 h

In [3]: df
Out[3]:
                               smiles_entry     readout_value
0  COc1ccc(CNCc2cccc(-c3cnc4nc(-c5cc(NC(=O)N6CCCC6)ccc5F)cn4n3)c2)cc1  0.794 to 3.16 µM
1  O=S(=O)(Nc1ccc(F)c(-c2cn3nc(N4CCOCC4)cnc3n2)c1)C1CCCC1  0.794 to 3.16 µM
2  O=C(Nc1ccc(F)c(-c2cn3nc(N4CCOCC4)cnc3n2)c1)N1CCCC1         > 50.1 µM
3  CNCc1ccc(-c2cnc3nc(-c4cc(NC(=O)N5CCCC5)ccc4F)cn3n2)cc1  0.794 to 3.16 µM
